Provenance of the data: patent US7932283B2

- procedure.text: logP by HPLC on reversed-phase column (C 18), EEC Directive 79/B31 Annex V.A8, methods A and B
- Type: physicochemical
- stated.conditions: reversed-phase HPLC column (C 18), LogP method A: HPLC reversed-phase C 18, 43° C., 0.1% aqueous phosphoric acid / acetonitrile, linear gradient 10% to 90% acetonitrile
Listed here: items and their measured chromatographic logP.
Returns: the value as a bare number; no unit string appended.

item_smiles=O=C(C1=C(C(F)(F)F)OCCS1)N(C1CC1)S(=O)(=O)c1ccccc1O measurement_label="chromatographic logP" numeric_value=3.2
item_smiles=O=C(c1cccnc1)N(C1CC1)S(=O)(=O)c1cccc(O)c1 measurement_label="chromatographic logP" numeric_value=2.3
item_smiles=Cc1nn(C)c(F)c1C(=O)N(C1CC1)S(=O)(=O)c1cccnc1O measurement_label="chromatographic logP" numeric_value=1.96

Input line: Suppose we examine the compound Cc1nn(C)c(Oc2cccc(Cl)c2)c1C(=O)N(C1CC1)S(=O)(=O)c1ccc(C(F)(F)F)cc1 ; what chromatographic logP value has been reported?
Output line: 4.13

###

Listed here: items and their measured chromatographic logP.
- procedure.text: logP by HPLC on reversed-phase column (C 18), EEC Directive 79/B31 Annex V.A8, methods A and B
- Type: physicochemical
- stated.conditions: reversed-phase HPLC column (C 18), HPLC reversed-phase C 18, method A: 43° C., 0.1% aqueous phosphoric acid, acetonitrile, linear gradient 10% to 90% acetonitrile
Returns: the value as a bare number; no unit string appended.

Consider the reported chromatographic logP for these molecules:
item_smiles=Cc1nn(C)c(F)c1C(=O)N(C1CC1)S(=O)(=O)c1ccc(O)c(C(F)(F)F)c1 numeric_value=3.5
item_smiles=Cc1nc(C(=O)N(C2CC2)S(=O)(=O)c2ccc(O)c(O)c2)cs1 numeric_value=3.46
item_smiles=Cc1nn(C)c(F)c1C(=O)N(C1CC1)S(=O)(=O)c1cccc(O)c1 numeric_value=2.82

Input line: Suppose we examine the molecule Cc1nn(C)c(F)c1C(=O)N(C1CC1)S(=O)(=O)c1ccc(F)cc1 ; what chromatographic logP value has been reported?
Output line: 2.46

###

Listed here: items and their measured chromatographic logP.
- procedure.text: logP by HPLC on reversed-phase column (C 18), EEC Directive 79/B31 Annex V.A8, methods A and B
- Assay type: physicochemical
- stated.conditions: reversed-phase HPLC column (C 18), LogP method A: HPLC reversed-phase C 18, 43° C., 0.1% aqueous phosphoric acid / acetonitrile, linear gradient 10% to 90% acetonitrile

item_smiles=Cc1n[nH]c(C)c1C(=O)N(C1CC1)S(=O)(=O)c1cccc(Cl)c1 measurement_label="chromatographic logP" result=2.45
item_smiles=CCc1c(C(=O)N(C2CC2)S(=O)(=O)c2ccc(O)c(O)c2)sc(=O)n1C1CC1 measurement_label="chromatographic logP" result=4.08
item_smiles=Cc1nn(C)c(C)c1C(=O)N(C1CC1)S(=O)(=O)c1ccc(C(F)(F)F)cc1 measurement_label="chromatographic logP" result=3
item_smiles=CC(C)c1c(C(=O)N(C2CC2)S(=O)(=O)c2ccc(O)c(O)c2)sc(=O)n1C1CC1 measurement_label="chromatographic logP" result=3.01
item_smiles=CCc1c(C(=O)N(C2CC2)S(=O)(=O)c2cccc(O)c2)sc(=O)n1C1CC1 measurement_label="chromatographic logP" result=2.01

Input line: Suppose we examine the molecule Cc1n[nH]c(C)c1C(=O)N(C1CC1)S(=O)(=O)c1ccc(O)c(O)c1 ; what chromatographic logP value has been reported?
Output line: 2.74

Input line: Suppose we examine the molecule COC(=O)c1csc(C)c1S(=O)(=O)N(C(=O)c1c(C)nn(C)c1F)C1CC1 ; what chromatographic logP value has been reported?
Output line: 2.24

Input line: Suppose we examine the molecule CC(C)c1c(C(=O)N(C2CC2)S(=O)(=O)c2ccc(O)cc2O)sc(=O)n1C1CC1 ; what chromatographic logP value has been reported?
Output line: 2.01

###

Listed here: items and their measured chromatographic logP.
- procedure.text: logP by HPLC on reversed-phase column (C 18), EEC Directive 79/B31 Annex V.A8, methods A and B
- Format: physicochemical
- stated.conditions: reversed-phase HPLC column (C 18), LogP method B: HPLC reversed-phase C 18, 40° C., 0.1% aqueous formic acid / acetonitrile, linear gradient 10% to 90% acetonitrile
Returns: the value as a bare number; no unit string appended.

item_smiles=CCOc1nn(C)cc1C(=O)N(C1CC1)S(=O)(=O)c1ccc(Oc2cccc(Br)c2)c(O)c1 numeric_value=4.5
item_smiles=COc1nn(C)cc1C(=O)N(C1CC1)S(=O)(=O)c1ccc(Oc2cccc(N(C)C)c2)cc1Br numeric_value=3.5
item_smiles=CCOc1nn(C)cc1C(=O)N(C1CC1)S(=O)(=O)c1ccc(Cc2cc(O)cc(O)c2)c(O)c1 numeric_value=5

Please find the next compound below.
Input line: Suppose we examine the compound Cc1oncc1C(=O)N(C1CC1)S(=O)(=O)c1ccc(Oc2ccccc2)cc1 ; what chromatographic logP value has been reported?
Output line: 3.7

###

- procedure.text: logP by HPLC on reversed-phase column (C 18), EEC Directive 79/B31 Annex V.A8, methods A and B
- Type: physicochemical
- stated.conditions: reversed-phase HPLC column (C 18), HPLC reversed-phase C 18, method B: 40° C., 0.1% aqueous formic acid and acetonitrile, linear gradient 10% to 90% acetonitrile
Listed here: items and their measured chromatographic logP.

compound="COc1ccc(S(=O)(=O)N(C(=O)c2cn(C)nc2OC)C2CC2)cc1OC [Compound 395]" measurement_label="chromatographic logP" result=1.9

Input line: Suppose we examine the compound CCCOc1nn(C)cc1C(=O)N(C1CC1)S(=O)(=O)c1ccc(Oc2cccc(N(C)C)c2)cc1Br [Compound 292] ; what chromatographic logP value has been reported?
Output line: 4.4

Input line: Suppose we examine the compound Cn1cc(C(=O)N(C2CC2)S(=O)(=O)c2cccc(O)c2O)c(C(F)(F)F)c1 [Compound 36] ; what chromatographic logP value has been reported?
Output line: 3.3

Input line: Suppose we examine the compound COc1cscc1C(=O)N(C1CC1)S(=O)(=O)c1ccc(Oc2ccccc2)cc1 [Compound 26] ; what chromatographic logP value has been reported?
Output line: 3.9

Input line: Suppose we examine the compound O=C(c1ccsc1I)N(C1CC1)S(=O)(=O)c1ccc(Oc2ccc(Br)cc2)cc1 [Compound 22] ; what chromatographic logP value has been reported?
Output line: 4.9

Input line: Suppose we examine the compound Cc1cc(C(=O)N(C2CC2)S(=O)(=O)c2ccc(O)c(O)c2O)nn1C [Compound 75] ; what chromatographic logP value has been reported?
Output line: 3.3

Input line: Suppose we examine the compound CCc1nn(C)c(F)c1C(=O)N(C1CC1)S(=O)(=O)c1c(O)cc(O)cc1O [Compound 379] ; what chromatographic logP value has been reported?
Output line: 3.6

Input line: Suppose we examine the compound CCc1nn(C)c(F)c1C(=O)N(C1CC1)S(=O)(=O)c1ccc(Oc2ccc(C(F)(F)F)cc2)cc1 [Compound 389] ; what chromatographic logP value has been reported?
Output line: 4.3

Input line: Suppose we examine the compound Cc1cc(C(=O)N(C2CC2)S(=O)(=O)c2cccc(O)c2O)c(C)o1 [Compound 5] ; what chromatographic logP value has been reported?
Output line: 3.8

Input line: Suppose we examine the compound COc1cscc1C(=O)N(C1CC1)S(=O)(=O)c1ccc(O)c(O)c1O [Compound 27] ; what chromatographic logP value has been reported?
Output line: 3.9

Input line: Suppose we examine the compound Cn1cc(C(=O)N(C2CC2)S(=O)(=O)c2ccc(Oc3ccccc3)cc2)c(C(F)(F)F)c1 [Compound 38] ; what chromatographic logP value has been reported?
Output line: 4

Input line: Suppose we examine the compound CCCOc1nn(C)cc1C(=O)N(C1CC1)S(=O)(=O)c1ccc(Oc2ccc(C(F)(F)F)cc2)cc1Br [Compound 298] ; what chromatographic logP value has been reported?
Output line: 4.6

Input line: Suppose we examine the compound Cn1nc(C(F)F)c(C(=O)N(C2CC2)S(=O)(=O)c2cccc(O)c2O)c1F [Compound 104] ; what chromatographic logP value has been reported?
Output line: 3.2

Input line: Suppose we examine the compound Cn1nc(-c2ccccc2)c(C(=O)N(C2CC2)S(=O)(=O)c2ccc(O)c(O)c2O)c1F [Compound 100] ; what chromatographic logP value has been reported?
Output line: 4.3

Input line: Suppose we examine the compound Cc1nc(C(F)(F)F)c(C(=O)N(C2CC2)S(=O)(=O)c2ccc(Oc3ccccc3)cc2)s1 [Compound 66] ; what chromatographic logP value has been reported?
Output line: 4.4

Input line: Suppose we examine the compound Cn1nc(C(F)(F)F)c(C(=O)N(C2CC2)S(=O)(=O)c2cc(O)c(O)cc2O)c1F [Compound 361] ; what chromatographic logP value has been reported?
Output line: 4

Input line: Suppose we examine the compound CCc1nn(C)c(F)c1C(=O)N(C1CC1)S(=O)(=O)c1ccc(F)cc1Br [Compound 380] ; what chromatographic logP value has been reported?
Output line: 2.9

Input line: Suppose we examine the compound O=C(c1ccsc1I)N(C1CC1)S(=O)(=O)c1cccc(O)c1O [Compound 19] ; what chromatographic logP value has been reported?
Output line: 3.8
